system: Staphylococcus aureus; assay: Antimicrobial activity against methicillin-resistant Staphylococcus aureus 309-7 clinical isolate after 16 hrs by broth microdilution method; assay type: functional; details: 309-7, 16 h
The molecules listed here are annotated with their MIC.

{"columns": ["Molecule", "Measured property", "Experimental result"],
 "data": [
  ["COc1cccc(NC(=S)N/N=C2\\C(=O)Nc3c(I)cccc32)c1", "MIC", "3.12 µg/mL"],
  ["COc1ccccc1NC(=S)N/N=C1\\C(=O)Nc2c(Br)cccc21", "MIC", "> 100 µg/mL"],
  ["Cc1ccc(NC(=S)N/N=C2\\C(=O)Nc3c(C)cccc32)cc1", "MIC", "1.56 µg/mL"],
  ["Cc1ccccc1NC(=S)N/N=C1\\C(=O)Nc2c(F)cccc21", "MIC", "1.56 µg/mL"],
  ["O=C1Nc2c(Br)cccc2/C1=N/NC(=S)Nc1ccc(Br)cc1", "MIC", "0.78 µg/mL"]
]}

The molecule COc1ccc(NC(=S)N/N=C2\C(=O)Nc3c(I)cccc32)cc1 , when measured on Staphylococcus aureus, yielded MIC of 1.56 µg/mL

The molecule Cc1cccc(NC(=S)N/N=C2\C(=O)Nc3c(I)cccc32)c1 , when measured on Staphylococcus aureus, yielded MIC of 0.78 µg/mL

The molecule Cc1ccc(NC(=S)N/N=C2\C(=O)Nc3c(I)cccc32)cc1 , when measured on Staphylococcus aureus, yielded MIC of 0.78 µg/mL

The molecule COc1ccc(NC(=S)N/N=C2\C(=O)Nc3c(Cl)cccc32)cc1 , when measured on Staphylococcus aureus, yielded MIC of 1.56 µg/mL

The molecule COc1cccc(OC)c1C(=O)N[C@@H]1C(=O)N2[C@@H]1SC(C)(C)[C@@H]2C(=O)O , when measured on Staphylococcus aureus, yielded MIC of > 200 µg/mL

Values from ChEMBL document CHEMBL3611970
